test: Quantitative determination of solubility of compound 5 (UPLC); type: physicochemical; conditions: aqueous acid solution (350 mM oxoglutaric acid in water), 25 °C, aqueous buffer, thermodynamic from solid, Oxoglutaric acid 350 mM in water, read-out: Solubility T = 3 Days Average
recorded_metric: solubility at 3 days (mg/mL)
Write the number in mg/mL without appending the unit.

Field request: solubility at 3 days | item: COc1cc(NCCNC(=O)/C=C/C(C)(F)F)ccn1 [Compound 5]
134

----------
assay: PK studies of formulations, plasma by HPLC-MS/MS; assay type: in vivo; details: bovine, plasma, sc, 1.5 mg/kg, FormV100 (L-tartaric acid, propylene glycol 500 mg, benzylalcohol, water), Cattle, 1.5 mg/kg, read-out: Tmax
recorded_metric: Tmax (h)
Write the number in h without appending the unit.

Field request: Tmax | item: COc1cc(NCCNC(=O)/C=C/C(C)(F)F)ccn1
1.75

----------
experiment: PK studies of formulations, plasma by HPLC-MS/MS; format: in vivo; details: bovine, plasma, sc, 1.5 mg/kg, FormU100 (L-tartaric acid, propylene glycol 400 mg, benzylalcohol, water), Cattle, 1.5 mg/kg, read-out: AUC
recorded_metric: AUC (ng·h/mL)
Write the number in ng·h/mL without appending the unit.

Field request: AUC | item: COc1cc(NCCNC(=O)/C=C/C(C)(F)F)ccn1
1680

----------
test: PK studies of formulations, plasma by HPLC-MS/MS; format: in vivo; settings: bovine, plasma, sc, 1 mg/kg, FormR50 (L-tartaric acid, 2-pyrrolidone, NaOH, water), Cattle, 1 mg/kg, read-out: Cmax
recorded_metric: Cmax (ng/mL)
Write the number in ng/mL without appending the unit.

Field request: Cmax | item: CCOc1cc(NCCNC(=O)/C=C/C(F)(F)F)ccn1
59.4

----------
assay: Quantitative determination of solubility of compound 5 (UPLC); type: physicochemical; conditions: aqueous acid solution (350 mM fumaric acid in water), 25 °C, aqueous buffer, thermodynamic from solid, Fumaric acid 350 mM in water, read-out: Solubility T = 1 Day Average
recorded_metric: solubility at 1 day (mg/mL)
Write the number in mg/mL without appending the unit.

Field request: solubility at 1 day | item: COc1cc(NCCNC(=O)/C=C/C(C)(F)F)ccn1 [Compound 5]
149

----------
assay: Stability tests of solutions of compound 4 with equimolar acids in water; type: physicochemical; settings: water with equimolar acid, water, thermodynamic from solid, equimolar acetic acid in water
recorded_metric: solubility

Field request: solubility | item: CCOc1cc(NCCNC(=O)/C=C/C(F)(F)F)ccn1
< 50 mg/mL

----------
test: Stability tests of solutions of compound 4 with equimolar acids in water; type: physicochemical; details: water with equimolar acid, water, thermodynamic from solid, equimolar Citric acid in water
recorded_metric: solubility

Field request: solubility | item: CCOc1cc(NCCNC(=O)/C=C/C(F)(F)F)ccn1
> 200 mg/mL

----------
experiment: Quantitative determination of solubility of compound 5 (UPLC); format: physicochemical; conditions: aqueous acid solution (350 mM oxalic acid in water), 25 °C, aqueous buffer, thermodynamic from solid, Oxalic acid 350 mM in water, read-out: Solubility T = 1 Day
recorded_metric: solubility at 1 day (mg/mL)
Write the number in mg/mL without appending the unit.

Field request: solubility at 1 day | item: COc1cc(NCCNC(=O)/C=C/C(C)(F)F)ccn1
149

----------
test: Quantitative determination of solubility of compound 5 (UPLC); type: physicochemical; details: aqueous acid solution (350 mM malic acid in water), 25 °C, aqueous buffer, thermodynamic from solid, Malic acid 350 mM in water, read-out: Solubility T = 3 Days Average
recorded_metric: solubility at 3 days
Quote the value and follow it with the unit of measurement.

Field request: solubility at 3 days | item: COc1cc(NCCNC(=O)/C=C/C(C)(F)F)ccn1 [Compound 5]
116 mg/mL

Taken from patent US20210107874A1.
